Method Notes: self-splicing fitness, log relative to wild type (ln ratio); higher = more splicing; Tetrahymena group I intron in knt gene, E. coli kanamycin selection, DiMSum; sequences stand for … in CUCUCU…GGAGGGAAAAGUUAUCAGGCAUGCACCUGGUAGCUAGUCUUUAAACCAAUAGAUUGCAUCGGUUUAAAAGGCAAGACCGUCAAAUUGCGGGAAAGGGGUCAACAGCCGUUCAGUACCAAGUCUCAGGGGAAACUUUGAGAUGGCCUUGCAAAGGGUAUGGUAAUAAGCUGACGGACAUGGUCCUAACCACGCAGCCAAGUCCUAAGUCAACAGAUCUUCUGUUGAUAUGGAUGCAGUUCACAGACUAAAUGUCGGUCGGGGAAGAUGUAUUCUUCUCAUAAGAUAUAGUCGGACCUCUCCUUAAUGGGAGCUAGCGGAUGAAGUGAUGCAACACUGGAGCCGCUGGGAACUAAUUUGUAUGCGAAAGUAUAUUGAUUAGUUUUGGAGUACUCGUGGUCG;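 further: selection with 25 µg/mL kanamycin versus none on LB agar overnight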
Experimental Context: 37 °C
Recorded self-splicing fitness (ln) for the following sequences
Keep it simple and answer with nothing but the number.

Qu. self-splicing fitness (ln) for AAGAAGCAAUAUUACGUUAA ?
Ans. -0.841

Qu. // lookup self-splicing fitness (ln) for CGAAAGCAAUAUUACGGGAA
Ans. -2.08

Qu. I am curious: what self-splicing fitness (ln) value has been reported for GGACAGCAAUAUUACGCGCG ?
Ans. -0.742

Qu. Suppose we examine the sequence CUGAAGCAAUAUUACGCGAA ; what self-splicing fitness (ln) value has been reported?
Ans. -0.319

Qu. Report self-splicing fitness (ln) for ACUAAGCAAUAUUACGCUCG please.
Ans. -0.528

New cases:
Qu. Can you look up the measured self-splicing fitness (ln) of AGUUAGCAAUAUUACGUCUA for me?
Ans. -0.0617

Qu. Consider the sequence AGGCAGCAAUAUUACGACUC and give its measured self-splicing fitness (ln).
Ans. -1.01

Qu. Find the recorded self-splicing fitness (ln) belonging to AUCAAGCAAUAUUACGGUGU and report it.
Ans. -1.11

Qu. Fill in: self-splicing fitness (ln) of GAAUAGCAAUAUUACGUUGU is ___
Ans. -2.38

Qu. Need self-splicing fitness (ln) of CAUUAGCAAUAUUACGACAC , thanks.
Ans. -1.89

---

Method Notes: self-splicing fitness, log relative to wild type (ln ratio); higher = more splicing; Tetrahymena group I intron in knt gene, E. coli kanamycin selection, DiMSum; sequences stand for … in CUCUCU…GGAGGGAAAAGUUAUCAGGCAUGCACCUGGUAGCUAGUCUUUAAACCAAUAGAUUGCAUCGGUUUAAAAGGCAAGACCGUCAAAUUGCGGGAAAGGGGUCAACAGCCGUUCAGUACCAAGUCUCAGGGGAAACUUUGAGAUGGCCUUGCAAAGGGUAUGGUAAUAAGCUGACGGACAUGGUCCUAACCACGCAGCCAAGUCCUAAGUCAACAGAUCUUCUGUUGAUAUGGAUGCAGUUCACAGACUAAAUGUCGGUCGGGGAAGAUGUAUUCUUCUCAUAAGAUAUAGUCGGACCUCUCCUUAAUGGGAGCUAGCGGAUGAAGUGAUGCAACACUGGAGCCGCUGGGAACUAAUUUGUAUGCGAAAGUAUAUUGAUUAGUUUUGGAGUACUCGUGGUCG
Experimental Context: 30 °C
Here the recorded self-splicing fitness (ln) is given for each entry.
Answer with a number only.

Examples from the recorded data:
Qu. I have this sequence here, GGGCAGCAAUAUUACGUCAU , and I need its recorded self-splicing fitness (ln).
Ans. -0.717

Qu. self-splicing fitness (ln) for AAUUAGCAAUAUUACGGUCC ?
Ans. -0.652

---
Qu. Return reported self-splicing fitness (ln); argument: GUCGAGCAAUAUUACGGGUG
Ans. -4.13

Qu. Given the sequence AGUGAGCAAUAUUACGUUGU , what is its reported self-splicing fitness (ln)?
Ans. -4.07

Qu. Quick one: self-splicing fitness (ln) of GUGAAGCAAUAUUACGGCCC ?
Ans. -0.145

Qu. Give the measured self-splicing fitness (ln) of UACAAGCAAUAUUACGACGU .
Ans. -0.941

Qu. Endpoint output: self-splicing fitness (ln) of AUCCAGCAAUAUUACGCGAU . Value?
Ans. -1.86
